# study.target: T1, extracellular domain of rhesus monkey BCMA (rhesus monkey, UniProt F7FFA0 1-53)
# T1 construct: extracellular domain; also called RhBCMA
# T1 sequence (F7FFA0 entry or part of it): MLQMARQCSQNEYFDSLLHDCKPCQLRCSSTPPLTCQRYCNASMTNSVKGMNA
# experiment.description: Octet BLI; Fab 200 nM
observed.property: Kd
Please answer in the form of a number followed by its unit of measurement.

Need Kd, item AB200-(2Vk44)_R2-VH-v1 (Fab, V domains shown) VH: QVQLVQSGAEVKKPGSSVKVSCKASGGTFTNYWIHWVRQAPGQGLEWMGGTYRSHSDTYYNQKYKSRVTITADKSTSTAYMELSSLRSEDTAVYYCARGAIYHGYDVIENWGQGTLVTVSS VL: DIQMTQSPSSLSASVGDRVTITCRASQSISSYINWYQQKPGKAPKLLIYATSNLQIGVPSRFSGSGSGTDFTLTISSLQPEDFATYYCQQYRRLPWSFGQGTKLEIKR 40 nM

Same read-out for AB200-(2Vk44)_R2-VH-v61 (Fab, V domains shown) VH: QVQLVQSGAEVKKPGSSVKVSCKASGGTFSNYWIHWVRQAPGQGLEWMGGTYRIHSDTYYNQKYKSRVTITADKSTSTAYMELSSLRSEDTAVYYCARGAIYHGYDVIENWGQGTLVTVSS VL: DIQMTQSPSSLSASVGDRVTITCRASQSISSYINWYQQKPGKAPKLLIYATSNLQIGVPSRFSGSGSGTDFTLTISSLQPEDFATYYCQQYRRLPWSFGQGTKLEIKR ? 59.6 nM
